test system: OVCAR-3 ovarian; test: NCI-60 one-dose screen, 48 h (100 = growth as untreated, 0 = no growth, -100 = all killed); settings: 10 µM unless noted
The panel holds about 83,000 compounds, 20% with a hit somewhere; the sample as a whole holds those more often.
READOUT_TYPE: growth (%)
One number for each entry, in %.

O=C1CC(c2ccc3c(c2)OCO3)Nc2ccccc21 (stereo not given) | -19.5
CCCCCn1sc(=O)n(Cc2ccc(CNC(=O)OCc3ccc4cccc(O)c4n3)cc2)c1=O | -84.5
[2H]C1([2H])CCN(C(=O)C2CC2)c2cc(NS(=O)(=O)c3ccc(-c4cccc(C(N)=O)c4)cc3)ccc21 | 12.4
CCOC(=O)C(C(C)=O)c1nc2sc3cc(Cl)c(Cl)cc3n2c(=O)c1C#N (stereo not given) | 112

Given the entry N#Cc1ccc(-c2ccc(COc3ccc(CC4SC(=O)NC4=O)cc3)cc2)cc1 (stereo not given) , report its measured growth. 64.7

###

system: EKVX NSCLC; assay: NCI-60 one-dose screen, 48 h; details: 10 µM unless noted
This is part of a sample that, as a whole, favours compounds with a hit. Of some 83,000 tested, about 20% had one in any assay. Active and inactive are the calls of the source. The calls were made as follows: active = growth percent below 10; inactive = the rest.
Hi there, use one of these labels in your reply, thanks! true = active, false = inactive

Cc1ccc(S(=O)(=O)Oc2ccc([N+](=O)[O-])cc2[N+](=O)[O-])cc1 | false
CCCCNC(=O)NS(=O)(=O)Cc1ccccc1 | false

Entry "CC(C)=CC/C=C(/C)[C@H]1CC[C@]2(C)[C@@H]1CC[C@@H]1[C@@]3(C)CCC(=O)NC(C)(C)[C@@H]3CC[C@]12C" : call = ? false

###

system: SNB-19 CNS; test: NCI-60 one-dose screen, 48 h; conditions: 10 µM unless noted
Compounds without any hit were thinned out: in the full panel of roughly 83,000, 20% have a hit. Activity calls are given as the source filed them. The calls were made as follows: active = growth percent below 10; inactive = the rest.
Hi there, use one of these labels in your reply, thanks! active, inactive

Past entries and their recorded results:
Cc1ccc(NCCN2CCCCC2)c2c(=O)c3ccccc3sc12 | inactive
Cc1ccc(NC(=S)/N=c2/n(-c3ccccc3)nc3n2CCN3C2=NCCN2)cc1 | inactive
Cc1nn(-c2ccccc2)c(N2CCOCC2)c1-c1nc2ccc([N+](=O)[O-])cc2[nH]1 | inactive
Cc1cccc(C[C@H](NC(=O)Nc2ccc(Cl)cc2F)C(=O)N[C@@H]2C(=O)N3C[C@H](O)C[C@H]3C(=O)N3CCCC[C@H]3C(=O)N[C@@H](C)C(=O)N3C[C@H](C)C[C@H]3C(=O)O[C@H]2C)c1 | inactive
O=C1COCCN1c1ccc(NCc2cn(Cc3ccc(F)cc3)c3ccccc23)cc1 | inactive

Entry "O=[N+]([O-])c1cc([N+](=O)[O-])c(NN=C(c2ccc(O)cc2)c2ccc(O)cc2)cc1Cl" : call = ? inactive

Also check "C=C(C)[C@@H]1CC[C@]2(C(=O)NCCNCCNC(=O)OC(C)(C)C)CC[C@]3(C)[C@H](CC[C@@H]4[C@@]5(C)CCC(=O)C(C)(C)[C@@H]5CC[C@]43C)[C@@H]12" inactive

Also check "O=C(Nc1ccc(Oc2ccc(F)cc2)c(Cl)c1)c1cnccn1" inactive

Also check C=C(C)C1CCC2(C(=O)O)CCC3(C)C(CCC4C5(C)CCC(OC(=O)NCc6ccccc6)C(C)(C)C5CCC43C)C12 (stereo unspecified) inactive

Also check "CO[C@H]1CC[C@@]2(C)C(=CC[C@H]3[C@@H]4C[C@H](O)C[C@@]4(C)CC[C@@H]32)C1" inactive

Also check CCOC(=O)c1nn(C2CCCCO2)c2ccc(NS(=O)(=O)c3ccc(C)cc3)cc12 (stereo unspecified) inactive

###

Kindly supply the reported growth values for the records listed here.
test system: OVCAR-8 ovarian; assay: NCI-60 one-dose screen, 48 h (100 = growth as untreated, 0 = no growth, -100 = all killed); conditions: 10 µM unless noted
Compounds without any hit were thinned out: in the full panel of roughly 83,000, 20% have a hit.
One number for each entry, in %.

COc1ccc(C(=O)/C=C/c2ccccn2)c(O)c1 | 92.6
COc1c(C(C)=O)c(OCCCCOc2c(C(C)=O)c(OC)c3ccoc3c2OC)c(OC)c2occc12 | 45.3
CCOC(=O)n1cc(C2=C(c3ccc(OC)c(OC)c3)COC2=O)c2ccccc21 | 25.5
CN(C)C(=S)Sc1ccc([N+](=O)[O-])cc1[N+](=O)[O-] | 18.7

Shift focus to the following entry.
Given the entry "Nc1ccc2c(c1)Cc1cc(NC(=O)C(F)(F)F)ccc1-2" , report its measured growth. 102

###

tested on: NCI-H226 lung; experiment: NCI-60 one-dose screen, 48 h (100 = growth as untreated, 0 = no growth, -100 = all killed); conditions: 10 µM unless noted
This is part of a sample that, as a whole, favours compounds with a hit. Of some 83,000 tested, about 20% had one in any assay.
growth strictly less than 90% = MET. Otherwise NOT MET.

COc1ccc(-c2cc(-c3ccc(Cl)cc3)nc(NCCCCNc3ccnc4cc(Cl)ccc34)n2)cc1 | MET
CCCCC1COc2cccc3c2N1C=C/C3=C\C(=O)n1ccc2ccccc21 (centres undefined) | MET
C=CC1=C(C)C2=NC1=CC1=NC(=CC3=C(C)C4=C(O)C(C(=O)O)C(=C5NC(=C2)C(C)C5CCC(=O)O)C4=N3)C(CC)=C1C (centres undefined) | NOT MET

Is it true that growth reported for "COc1cc2c(cc1OCCCN1CCN(CCCOc3cc4c(cc3OC)C(=O)N3C[C@H](F)C[C@H]3C=N4)CC1)N=C[C@@H]1C[C@@H](F)CN1C2=O" is less than 90%? MET

Also check "CCOc1ccc(S(=O)(=O)Nc2ccc3c(c2)N(S(=O)(=O)CC)CCC3)cc1" MET

Also check CC(C)[N+](C)(C)CC(O)COc1cccc2ccccc12 (centres undefined) NOT MET

Also check "CCOC(=O)CCC[P+](c1ccccc1)(c1ccccc1)c1ccccc1" NOT MET

Also check "CCCCCCCCCCCCCCCCCCNC(=S)N/N=C/c1ccc(OC)c(OC)c1" NOT MET

###

system: MCF7 breast; assay: NCI-60 one-dose screen, 48 h (100 = growth as untreated, 0 = no growth, -100 = all killed); conditions: 10 µM unless noted
This is part of a sample that, as a whole, favours compounds with a hit. Of some 83,000 tested, about 20% had one in any assay. Active and inactive are the calls of the source. The calls were made as follows: active = growth percent below 10; inactive = the rest.
READOUT_TYPE: growth

Cc1ccc(NC(=O)N[C@@H](Cc2cc(F)cc(F)c2)C(=O)N[C@@H]2C(=O)N3CCC[C@H]3C(=O)N3CCOC[C@H]3C(=O)N[C@@H](C)C(=O)N3C[C@H](C)C[C@H]3C(=O)O[C@H]2C)cc1 | 25% (inactive)
COc1ccc(-c2cc(-c3ccc(Cl)cc3)nc(SCCCCCCC(=O)NO)n2)cc1 | 22.1% (inactive)

Give measured growth for every item shown.
1. CC1=CC[C@@H]2C(C)(C)C(=O)CC[C@@]2(C)[C@@H]1COc1ccc2ccc(=O)oc2c1
2. O=S(=O)(NCc1ccccc1)c1ncnc2nc[nH]c12

["87.8% (inactive)", "98.1% (inactive)"]

###

Kindly supply the reported growth values for the records listed here.
test system: NCI/ADR-RES ovarian; experiment: NCI-60 one-dose screen, 48 h (100 = growth as untreated, 0 = no growth, -100 = all killed); conditions: 10 µM unless noted
Compounds without any hit were thinned out: in the full panel of roughly 83,000, 20% have a hit. Calls of active or inactive are those of the source. Rule for the calls: active = growth percent below 10; inactive = the rest.

Here's what some known entries look like.
COc1ncc(-c2ccc3nc(N)n(-c4ccccc4C(F)(F)F)c(=O)c3c2)cc1S(=O)(=O)Nc1ccc(F)cc1F | 25.4% (inactive)
CC(C)CCSc1nc(N)nc2nc[nH]c12 | 104% (inactive)
CC1(C)CC[C@]2(C(=O)O)CC[C@]3(C)C(=CC[C@@H]4[C@@]5(C)C/C(=C/c6ccco6)C(=O)C(C)(C)[C@@H]5CC[C@]43C)[C@@H]2C1 | -12.6% [100 µM] (active)
NC1=NC(=O)NC1(c1ccccc1)c1ccccc1 | 106% (inactive)
O=C1NC(=O)c2cc([N+](=O)[O-])cc3cccc1c23 | 95.9% (inactive)

Give measured growth for every item shown.
1. CC(C)=CC/C=C(/C)[C@H]1CC[C@]2(C)[C@@H]1CC[C@@H]1[C@@]3(C)CCCNC(C)(C)[C@@H]3CC[C@]12C
2. Cc1ccccc1-n1nnc(C(=O)Nc2nc3ccc(F)cc3s2)c1C
3. Nc1cc(NN=C(c2ccc(O)cc2)c2ccc(O)cc2)c([N+](=O)[O-])cc1[N+](=O)[O-]
4. CCOC(=O)c1nn(C2CCCCO2)c2ccc(NC(=O)CSc3nc4ccccc4c(=O)[nH]3)cc12 (stereo unspecified)
5. N/C(=N\c1nc2ccccc2[nH]1)NC(=O)Cc1cccc2ccccc12

["-69.6% [100 µM] (active)", "60.7% (inactive)", "7.33% (active)", "107% (inactive)", "79.9% (inactive)"]

Give measured growth for every item shown.
1. C[N+](C)(C)c1ncnc2[n-]cnc12
2. Clc1ccc(/C=N/Nc2nc3ccccc3s2)c(Cl)c1
3. CCCCC(CCCCCC(CCCC)C1NC(C)Cc2cc(OC)c(OC)cc21)C1NC(C)Cc2cc(OC)c(OC)cc21 (stereo unspecified)
4. CC1(C)CC[C@]2(C(=O)O)CC[C@]3(C)C(=CC[C@@H]4[C@@]5(C)C/C(=C/c6cccnc6)[C@H](O)C(C)(C)[C@@H]5CC[C@]43C)[C@@H]2C1
5. CC1Cc2c(Cl)ncnc2N(C)c2ccccc21 (stereo unspecified)

1: 41.5% (inactive); 2: 89.7% (inactive); 3: -88.3% (active); 4: 3.8% [100 µM] (active); 5: 16.6% (inactive)

Given the entry "N#C/C(C(=O)c1ccccc1)=C1/C(=O)Nc2ccccc21" , report its measured growth. 103% (inactive)
